ASSAY_REMARKS: Protonation constants of the ligands by pH-potentiometric titration
Format: physicochemical
COND: ligand protonation constant; I = 0.15 M NaCl, 25 °C
EXPERIMENTAL_ENDPOINT: log K3H

Incoming: Provide one value: measured log K3H of O=C(O)CNC(=O)CN1CCN(CC(=O)NCC(=O)O)Cc2cccc(n2)CN(CC(=O)NCC(=O)O)CC1
Outgoing: 3.81 (1)

Incoming: Provide one value: measured log K3H of O=C(CN1CCN(CC(=O)N2CCCCC2)Cc2cccc(n2)CN(CC(=O)N2CCCCC2)CC1)N1CCCCC1
Outgoing: 1.42 (9)

Incoming: Provide one value: measured log K3H of O=C(O)CN1CCNCCN(CC(=O)O)CCN(CC(=O)O)CC1
Outgoing: 4.43 (9)

Incoming: Provide one value: measured log K3H of O=P(O)(O)CN1CCN(CP(=O)(O)O)CCN(CP(=O)(O)O)CCN(CP(=O)(O)O)CC1
Outgoing: 8.63 (5)

Incoming: Provide one value: measured log K3H of O=C(O)CN1CCOCCN(CC(=O)O)CCN(CC(=O)O)CC1
Outgoing: 3.99 (3)

Incoming: Provide one value: measured log K3H of O=C(O)CN1CCN(CC(=O)O)Cc2cccc(n2)CN(CC(=O)O)CC1
Outgoing: 3.22 (6)

Incoming: Provide one value: measured log K3H of O=P(O)(O)CN1CCNCCN(CP(=O)(O)O)CCN(CP(=O)(O)O)CC1
Outgoing: 8.57 (2)
